All values here come from patent US5948808A.

# Tested on: MCF-7 cells
# ASSAY_EXPLANATION: Effect of compounds on MCF-7 proliferation (E2-induced growth)
# Assay type: cell-based
# MEASUREMENT_SETUP: Homo sapiens, MCF7, 144 h; 50 μM, with E2 (1 nM), 6 days; read-out: % of E2-Induced Response (Conc. of I3C Analogs)
For each entry below, report its activity at 50 µM value.

>  <MOLECULAR_STRING>
O=[N+]([O-])c1ccc2[nH]cc(CO)c2c1

>  <activity at 50 µM>
1.71%

$$$$
>  <MOLECULAR_STRING>
OCc1c[nH]c2ccc(Br)cc12

>  <activity at 50 µM>
59.6%

$$$$

Look up activity at 50 µM for the entries below, preserving their order.
1. Cc1c(CO)c2ccccc2n1C
2. COc1ccc2[nH]cc(CO)c2c1

RESULT:
1. 0.35%
2. 2.97%
